Target: UniProt:Q13946
Sequence (Q13946 whole entry): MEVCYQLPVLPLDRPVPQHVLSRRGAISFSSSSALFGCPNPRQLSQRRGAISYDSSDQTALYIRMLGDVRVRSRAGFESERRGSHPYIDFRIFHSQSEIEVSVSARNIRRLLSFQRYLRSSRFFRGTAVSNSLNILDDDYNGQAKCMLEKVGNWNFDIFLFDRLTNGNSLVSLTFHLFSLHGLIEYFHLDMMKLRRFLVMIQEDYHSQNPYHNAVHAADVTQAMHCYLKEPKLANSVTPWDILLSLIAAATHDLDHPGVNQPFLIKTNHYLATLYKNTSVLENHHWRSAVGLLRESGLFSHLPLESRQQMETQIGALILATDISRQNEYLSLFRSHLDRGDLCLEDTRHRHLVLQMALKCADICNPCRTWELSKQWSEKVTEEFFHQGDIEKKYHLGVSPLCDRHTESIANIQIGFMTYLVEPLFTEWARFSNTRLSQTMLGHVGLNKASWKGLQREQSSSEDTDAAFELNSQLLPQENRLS
Measure Name: IC50 (nM)
Write the answer as a number in nM, unit excluded.

Item Cc1ccc([N+](=O)[O-])cc1S(=O)(=O)N(C)C [BRL50481, reference compound] : provide IC50 200

====

Molecular target: UniProtKB Q07343
Sequence (Q07343 whole entry, species assumed): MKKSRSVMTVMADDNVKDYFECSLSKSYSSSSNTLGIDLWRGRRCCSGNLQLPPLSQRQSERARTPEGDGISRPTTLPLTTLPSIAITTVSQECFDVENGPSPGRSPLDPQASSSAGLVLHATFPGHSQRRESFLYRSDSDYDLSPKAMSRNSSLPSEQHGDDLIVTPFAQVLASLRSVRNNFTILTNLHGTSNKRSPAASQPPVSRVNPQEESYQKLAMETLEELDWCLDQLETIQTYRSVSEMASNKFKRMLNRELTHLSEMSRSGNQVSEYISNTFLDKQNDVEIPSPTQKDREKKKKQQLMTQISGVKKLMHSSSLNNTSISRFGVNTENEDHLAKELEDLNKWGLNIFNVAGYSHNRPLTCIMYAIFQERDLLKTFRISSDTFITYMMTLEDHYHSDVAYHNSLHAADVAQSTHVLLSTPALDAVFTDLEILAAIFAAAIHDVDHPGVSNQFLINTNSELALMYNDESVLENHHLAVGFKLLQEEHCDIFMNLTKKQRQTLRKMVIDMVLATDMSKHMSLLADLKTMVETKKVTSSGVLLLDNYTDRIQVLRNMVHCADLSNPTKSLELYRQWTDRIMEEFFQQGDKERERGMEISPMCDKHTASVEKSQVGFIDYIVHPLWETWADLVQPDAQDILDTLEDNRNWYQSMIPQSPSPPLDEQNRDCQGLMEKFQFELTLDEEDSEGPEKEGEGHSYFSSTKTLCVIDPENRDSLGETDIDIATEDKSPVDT
Experiment: in vitro enzyme assay PDE4B (Table 7)
Assay type: biochemical
Details: 2 micromolar compound; read-out: percent of PDE activity present, PDE4B
Could you please mark 1 for values of remaining activity at 2 µM below 50% and 0 for values at or above it?

Check out these entries, answers already filled in.
CCN(CC)c1nc(C)nc2sc(C(=O)Nc3ccc(F)cc3F)c(C)c12 [Compound 58-6] :: 0
Cc1c(C(=O)Nc2ccc(F)cc2F)sc2ncnc(N3CCC(C)CC3)c12 [Compound 58] :: 1
Cc1c(C(=O)Nc2ccc(F)cc2F)sc2ncnc(N3CCN(C)CC3)c12 [Compound 58-1] :: 0
Cc1c(C(=O)Nc2ccc(F)cc2F)sc2ncnc(N(C)c3ccccc3)c12 [Compound 58-9] :: 0
Cc1c(C(=O)Nc2ccc3c(c2)OCCO3)sc2ncnc(N3CCc4ccccc4C3)c12 [Compound 58-10] :: 1
Cc1nc(N2CCOCC2)c2c(C)c(C(=O)Nc3ccc(F)cc3F)sc2n1 [Compound 58-2] :: 1
Cc1nc(N2CCCCC2C)c2c(C)c(C(=O)Nc3ccc(F)cc3F)sc2n1 (stereo not drawn) [Compound 58-4] :: 1
COc1cc(NC(=O)c2sc3ncnc(N4CCCCC4C)c3c2C)cc(OC)c1OC (stereo not drawn) [Compound 58-3] :: 1

Below: the item to evaluate.
Report whether reported remaining activity at 2 µM is lower than 50% (strictly) for Cc1nc(N2CCC(C)CC2)c2c(C)c(C(=O)Nc3c(F)cc(F)cc3Br)sc2n1 [Compound 58-5] 1
